- targetSystem: recombinant human Vps34 (Homo sapiens, UniProt Q8NEB9)
- Sequence (Q8NEB9 whole entry): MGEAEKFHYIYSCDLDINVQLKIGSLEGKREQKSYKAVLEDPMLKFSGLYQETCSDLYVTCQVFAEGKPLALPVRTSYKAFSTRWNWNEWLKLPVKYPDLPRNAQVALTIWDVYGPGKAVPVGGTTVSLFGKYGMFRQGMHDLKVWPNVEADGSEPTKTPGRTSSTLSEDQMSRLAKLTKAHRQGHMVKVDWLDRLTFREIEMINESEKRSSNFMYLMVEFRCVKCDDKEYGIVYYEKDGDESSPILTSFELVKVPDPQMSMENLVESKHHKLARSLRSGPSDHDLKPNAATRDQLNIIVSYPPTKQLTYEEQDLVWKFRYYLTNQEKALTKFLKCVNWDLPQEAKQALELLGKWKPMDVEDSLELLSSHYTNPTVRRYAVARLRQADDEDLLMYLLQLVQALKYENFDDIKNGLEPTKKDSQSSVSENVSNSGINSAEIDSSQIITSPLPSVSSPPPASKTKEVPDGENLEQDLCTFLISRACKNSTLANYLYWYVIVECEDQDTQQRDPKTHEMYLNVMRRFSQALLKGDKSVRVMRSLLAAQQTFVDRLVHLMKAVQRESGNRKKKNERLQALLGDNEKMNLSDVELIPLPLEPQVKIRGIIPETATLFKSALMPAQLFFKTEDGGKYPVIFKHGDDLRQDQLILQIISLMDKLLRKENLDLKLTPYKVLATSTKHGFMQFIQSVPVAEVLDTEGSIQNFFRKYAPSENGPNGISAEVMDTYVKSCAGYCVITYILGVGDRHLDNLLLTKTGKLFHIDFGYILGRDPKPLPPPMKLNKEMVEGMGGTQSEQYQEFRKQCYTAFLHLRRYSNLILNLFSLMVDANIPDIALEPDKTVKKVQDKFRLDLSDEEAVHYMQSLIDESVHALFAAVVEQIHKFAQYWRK
- assayProcedure: Vps34 KinaseGlo assay
- runConditions: KinaseGlo luminescence ATP detection; PI/OG substrate; 1 μM ATP; room temperature; 8 concentrations, n=2
Response field label takes true (1) when IC50 is strictly below 100 nM and false (0) in all other cases.

Nc1ncc(-c2ccnc(Nc3ccncc3)n2)c(COCc2ccccc2)n1; true (1)
CC(C)(O)CNc1ncc(-c2ccnc(Nc3ccc(F)cc3)n2)c(CC2CC2)n1 [Example 16c]; false (0)
CC(C)(C)CNc1ncc(-c2ccnc(Nc3ccncc3)n2)c(CC2CC2)n1 [Example 10r]; true (1)

As a next step, examine the compound that follows.
Is IC50 of Nc1ncc(-c2ccnc(Nc3ccncc3)n2)c(CO)n1 strictly below 100 nM? false (0)

src = patent US8901147B2
